Origin of measurements: the Human Domainome abundance scans (Beltran et al. 2025)

B1: Homeobox protein cut-like 1, residues 941 to 1008; numbered along this chain, P39880 (parent)
chain: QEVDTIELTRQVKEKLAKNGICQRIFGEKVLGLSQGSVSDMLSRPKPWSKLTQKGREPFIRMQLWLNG

variants of: B1; experiment: abundance fitness (aPCA) (normalised: wild type 0, dead -1); higher = more abundant; growth selection in yeast, the domain comes from the species named; details: Homo sapiens
Class (by abundance fitness) -- 0 (below -0.2), 1 (-0.2 to below -0.08), 2 (-0.08 or more)

# macromolecule-sequence, answer-label
records = [
    ("QEVDTIELTRQVFEKLAKNGICQRIFGEKVLGLSQGSVSDMLSRPKPWSKLTQKGREPFIRMQLWLNG [K13F]", 0),
    ("QEVDTIELTRQVKEKLARNGICQRIFGEKVLGLSQGSVSDMLSRPKPWSKLTQKGREPFIRMQLWLNG [K18R]", 1),
    ("QEVDTIELTRQVKEKLAKNGICQRIFGEKVPGLSQGSVSDMLSRPKPWSKLTQKGREPFIRMQLWLNG [L31P]", 0),
    ("QEVDTIELTRQVKEKLAKNGICQRIFGEKVLGLFQGSVSDMLSRPKPWSKLTQKGREPFIRMQLWLNG [S34F]", 2),
    ("QEVDTIELTRQVKEKLAKNGICQRIFGEKVLGLSQGSVSDMLSRPKPWPKLTQKGREPFIRMQLWLNG [S49P]", 0),
    ("QEVDTIELTRQVKEKLAKNGICQRIFGEKVLGLSQGSVSDMLSRPKPWSKCTQKGREPFIRMQLWLNG [L51C]", 0),
    ("QEVDTIELTRQVKEKLAKNGICQRIFGEKVLGLSQGSMSDMLSRPKPWSKLTQKGREPFIRMQLWLNG [V38M]", 1),
    ("QEVDTIELTRQTKEKLAKNGICQRIFGEKVLGLSQGSVSDMLSRPKPWSKLTQKGREPFIRMQLWLNG [V12T]", 1),
    ("QEVDTIELTRQAKEKLAKNGICQRIFGEKVLGLSQGSVSDMLSRPKPWSKLTQKGREPFIRMQLWLNG [V12A]", 1),
    ("QEVDTIELTRQVKEKLAKNGIYQRIFGEKVLGLSQGSVSDMLSRPKPWSKLTQKGREPFIRMQLWLNG [C22Y]", 0),
    ("QEVITIELTRQVKEKLAKNGICQRIFGEKVLGLSQGSVSDMLSRPKPWSKLTQKGREPFIRMQLWLNG [D4I]", 0),
    ("GEVDTIELTRQVKEKLAKNGICQRIFGEKVLGLSQGSVSDMLSRPKPWSKLTQKGREPFIRMQLWLNG [Q1G]", 2),
    ("QEVDTIELTRQVKEKLAKNGICQRIFGEKVLGLSQGSVSDMLSRPPPWSKLTQKGREPFIRMQLWLNG [K46P]", 2),
    ("QEVDTIELTRQVKEKLAKNGICQREFGEKVLGLSQGSVSDMLSRPKPWSKLTQKGREPFIRMQLWLNG [I25E]", 2),
    ("QEVDTIELTRQVKEKLAKNGICQRIFGEKVLGLSQGSVNDMLSRPKPWSKLTQKGREPFIRMQLWLNG [S39N]", 2),
    ("QEVDTIELTRQVKEKLAKNGICQRIFGEKVLGKSQGSVSDMLSRPKPWSKLTQKGREPFIRMQLWLNG [L33K]", 1),
    ("QEVDTIELTRQVKEKLAKNGICQRIPGEKVLGLSQGSVSDMLSRPKPWSKLTQKGREPFIRMQLWLNG [F26P]", 0),
    ("QEVDTIELTRQVKEKLAKNGICQRIFGEKVLGLSQGSVSDMRSRPKPWSKLTQKGREPFIRMQLWLNG [L42R]", 0),
    ("QEVDTIELTRQVKEKLAKNGICQRIFGEKVLGLSQGSVSDMLARPKPWSKLTQKGREPFIRMQLWLNG [S43A]", 2),
    ("QEVDTIELTRQVKEKLAKNGICQRIFGEKVLGLDQGSVSDMLSRPKPWSKLTQKGREPFIRMQLWLNG [S34D]", 2),
]
